Test system: Escherichia coli
Assay: Antimicrobial activity against Escherichia coli TOP10 harboring pADC-11 plasmid carrying entire blaAmpC gene with alanine residue insertion at 215 position by Etest method
Type: functional
# note: exactly 2 µg/mL is not below, so it is 0; use 1 for MIC strictly under it

Check out these entries, answers already filled in.
> print(dat)
                                   molecule  cat
1  C[C@@H](O)[C@H]1C(=O)N2C(C(=O)O)=C(S[C@@H]3CN[C@H](C(=O)N(C)C)C3)[C@H](C)[C@H]12    1
2  CO/N=C(\C(=O)N[C@@H]1C(=O)N2C(C(=O)[O-])=C(C[N+]3(C)CCCC3)CS[C@H]12)c1csc(N)n1    1
3  CC1(C)S[C@@H]2[C@H](NC(=O)[C@H](N)c3ccc(O)cc3)C(=O)N2[C@H]1C(=O)O    0
4  CC(C)(O/N=C(\C(=O)N[C@@H]1C(=O)N2C(C(=O)[O-])=C(C[n+]3ccccc3)CS[C@H]12)c1csc(N)n1)C(=O)O    0
5  CCN1CCN(C(=O)N[C@@H](C(=O)N[C@@H]2C(=O)N3[C@@H]2SC(C)(C)[C@@H]3C(=O)O)c2ccccc2)C(=O)C1=O    0
6  C[C@@H](O)[C@H]1C(=O)N2C(C(=O)O)=C(SCCNC=N)C[C@H]12 [IMIPENEM ANHYDROUS]    1
7  CO/N=C(\C(=O)N[C@@H]1C(=O)N2C(C(=O)O)=C(COC(C)=O)CS[C@H]12)c1csc(N)n1    0
8  CC1(C)S[C@@H]2[C@H](NC(=O)[C@H](C(=O)O)c3ccsc3)C(=O)N2[C@H]1C(=O)O    0
9  C[C@H]1[C@H](NC(=O)/C(=N\OC(C)(C)C(=O)O)c2csc(N)n2)C(=O)N1S(=O)(=O)O    0

In: Just wondering, is MIC of CO/N=C(\C(=O)N[C@@H]1C(=O)N2C(C(=O)O)=C(COC(N)=O)CS[C@H]12)c1ccco1 below 2 µg/mL?
Out: 0

* * *

Exercise: state measured MIC for each of the compounds provided.
System: Acinetobacter baumannii
Test: Antimicrobial activity against Acinetobacter baumannii CIP70.10 by Etest method
Format: functional
Answers are plain numbers, in µg/mL.

> print(dat)
                                test.smiles  measurement.type   val
1  CO/N=C(\C(=O)N[C@@H]1C(=O)N2C(C(=O)[O-])=C(C[n+]3cccc4c3CCC4)CS[C@H]12)c1csc(N)n1               MIC     2
2  C[C@@H](O)[C@H]1C(=O)N2C(C(=O)O)=C(S[C@@H]3CN[C@H](C(=O)N(C)C)C3)[C@H](C)[C@H]12               MIC  0.25
3  CC(C)(O/N=C(\C(=O)N[C@@H]1C(=O)N2C(C(=O)[O-])=C(C[n+]3ccccc3)CS[C@H]12)c1csc(N)n1)C(=O)O               MIC     2

Next:
Quick note, MIC for CCN1CCN(C(=O)N[C@@H](C(=O)N[C@@H]2C(=O)N3[C@@H]2SC(C)(C)[C@@H]3C(=O)O)c2ccccc2)C(=O)C1=O landed at 16

* * *

Exercise: state measured MIC for each of the compounds provided.
System: Escherichia coli
Assay: Antimicrobial activity against Escherichia coli TOP10 harboring pADC-50 plasmid by Etest method
Assay type: functional
Answers are plain numbers, in µg/mL.

# annotated cases, reported MIC shown
> print(dat)
                                test.smiles  measurement.type  val
1  CO/N=C(\C(=O)N[C@@H]1C(=O)N2C(C(=O)O)=C(COC(C)=O)CS[C@H]12)c1csc(N)n1               MIC  0.5
2  CC1(C)S[C@@H]2[C@H](NC(=O)[C@H](N)c3ccc(O)cc3)C(=O)N2[C@H]1C(=O)O               MIC  256
3  CC(C)(O/N=C(\C(=O)N[C@@H]1C(=O)N2C(C(=O)[O-])=C(C[n+]3ccccc3)CS[C@H]12)c1csc(N)n1)C(=O)O               MIC  0.5

Give MIC for all compounds that follow.
1. CO/N=C(\C(=O)N[C@@H]1C(=O)N2C(C(=O)O)=C(COC(N)=O)CS[C@H]12)c1ccco1
2. CO/N=C(\C(=O)N[C@@H]1C(=O)N2C(C(=O)[O-])=C(C[n+]3cccc4c3CCC4)CS[C@H]12)c1csc(N)n1
3. C[C@@H](O)[C@H]1C(=O)N2C(C(=O)O)=C(S[C@@H]3CN[C@H](C(=O)N(C)C)C3)[C@H](C)[C@H]12
4. CCN1CCN(C(=O)N[C@@H](C(=O)N[C@@H]2C(=O)N3[C@@H]2SC(C)(C)[C@@H]3C(=O)O)c2ccccc2)C(=O)C1=O
5. CC1(C)S[C@@H]2[C@H](NC(=O)[C@H](C(=O)O)c3ccsc3)C(=O)N2[C@H]1C(=O)O
6. CO/N=C(\C(=O)N[C@@H]1C(=O)N2C(C(=O)[O-])=C(C[N+]3(C)CCCC3)CS[C@H]12)c1csc(N)n1

Out:
1: 64; 2: 0.047; 3: 0.023; 4: 16; 5: 8; 6: 0.032

* * *

Target: Beta-lactamase ADC-33 (Acinetobacter baumannii, UniProt B2ZTR6)
Experiment: Activity of Acinetobacter baumannii ADC-33 beta-lactamase
Measurement type: pKi
Numbers only, as −log10 of the molar value.

# annotated cases, reported pKi shown
> print(dat)
                                   compound  measurement.type   val
1  C[C@H]1[C@H](NC(=O)/C(=N\OC(C)(C)C(=O)O)c2csc(N)n2)C(=O)N1S(=O)(=O)O [AZTREONAM]               pKi  8.15
2  CO[C@@]1(NC(=O)Cc2cccs2)C(=O)N2C(C(=O)O)=C(COC(N)=O)CS[C@@H]21 [CEFOXITIN]               pKi  7.00

Next:
Quick note, pKi for CO/N=C(\C(=O)N[C@@H]1C(=O)N2C(C(=O)O)=C(COC(C)=O)CS[C@H]12)c1csc(N)n1 [CEFOTAXIME] landed at 6.30

* * *

Test system: Acinetobacter baumannii
Experiment: Ratio of Kcat to Km for Acinetobacter baumannii ADC-33 beta-lactamase to Kcat to Km for Acinetobacter baumannii ADC-11 beta-lactamase
# note: exactly 1 µM⁻¹ s⁻¹ is not below, so it is not fulfilled; use fulfilled for kcat/Km strictly under it

> print(dat)
                                   molecule              test.target            cat
1  CC(=O)OCC1=C(C(=O)O)N2C(=O)[C@@H](NC(=O)Cc3cccs3)[C@H]2SC1  Acinetobacter baumannii      fulfilled
2  CC1(C)S[C@@H]2[C@H](NC(=O)Cc3ccccc3)C(=O)N2[C@H]1C(=O)O  Acinetobacter baumannii  not fulfilled
3  CCN1CCN(C(=O)N[C@@H](C(=O)N[C@@H]2C(=O)N3[C@@H]2SC(C)(C)[C@@H]3C(=O)O)c2ccccc2)C(=O)C1=O [PIPERACILLIN]  Acinetobacter baumannii  not fulfilled
4  O=C(Cc1cccs1)N[C@@H]1C(=O)N2C(C(=O)[O-])=C(C[n+]3ccccc3)CS[C@H]12  Acinetobacter baumannii      fulfilled

In the following, a different molecule is considered.
In: Just wondering, is kcat/Km of CO/N=C(\C(=O)N[C@@H]1C(=O)N2C(C(=O)[O-])=C(C[n+]3cccc4c3CCC4)CS[C@H]12)c1csc(N)n1 [CEFPIROME] below 1 µM⁻¹ s⁻¹?
Out: not fulfilled

* * *

Exercise: state measured log10 MIC for each of the molecules provided.
Test system: Escherichia coli
Test: Antimicrobial activity against Escherichia coli TOP10 harboring pADC-33 plasmid by Etest method
Assay type: functional
The common logarithm of MIC in µg/mL is what is listed.

# annotated cases, reported log10 MIC shown
> print(dat)
                                   molecule       test.target    val
1  C[C@@H](O)[C@H]1C(=O)N2C(C(=O)O)=C(S[C@@H]3CN[C@H](C(=O)N(C)C)C3)[C@H](C)[C@H]12 [MEROPENEM]  Escherichia coli  -1.64
2  CO/N=C(\C(=O)N[C@@H]1C(=O)N2C(C(=O)[O-])=C(C[N+]3(C)CCCC3)CS[C@H]12)c1csc(N)n1  Escherichia coli  -0.90
3  CCN1CCN(C(=O)N[C@@H](C(=O)N[C@@H]2C(=O)N3[C@@H]2SC(C)(C)[C@@H]3C(=O)O)c2ccccc2)C(=O)C1=O [PIPERACILLIN]  Escherichia coli   1.51
4  CC1(C)S[C@@H]2[C@H](NC(=O)[C@H](C(=O)O)c3ccsc3)C(=O)N2[C@H]1C(=O)O [TICARCILLIN]  Escherichia coli   1.81
5  C[C@@H](O)[C@H]1C(=O)N2C(C(=O)O)=C(SCCNC=N)C[C@H]12 [IMIPENEM ANHYDROUS]  Escherichia coli  -0.60

Give log10 MIC for all molecules that follow.
1. CO/N=C(\C(=O)N[C@@H]1C(=O)N2C(C(=O)[O-])=C(C[n+]3cccc4c3CCC4)CS[C@H]12)c1csc(N)n1 [CEFPIROME]
2. C[C@H]1[C@H](NC(=O)/C(=N\OC(C)(C)C(=O)O)c2csc(N)n2)C(=O)N1S(=O)(=O)O [AZTREONAM]

Out:
[-0.30, 0.90]

Quick note, log10 MIC for CO/N=C(\C(=O)N[C@@H]1C(=O)N2C(C(=O)O)=C(COC(C)=O)CS[C@H]12)c1csc(N)n1 [CEFOTAXIME] landed at 2.11
